# aptazyme ON/OFF ratio per entry
B1: Pistol ribozyme (parent)
chain: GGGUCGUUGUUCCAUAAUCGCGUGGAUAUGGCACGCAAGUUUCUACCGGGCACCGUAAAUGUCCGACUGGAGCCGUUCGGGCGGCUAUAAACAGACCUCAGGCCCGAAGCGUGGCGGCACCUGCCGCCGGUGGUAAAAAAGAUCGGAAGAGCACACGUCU

variants of: B1; test: aptazyme ON/OFF ratio, guanine; higher = stronger switching; co-transcriptional cleavage with and without guanine
observable: aptazyme ON/OFF ratio

> print(dat)
                          mutations             observable  number
 1       U7C U8C G9C U10C C12G C13A  aptazyme ON/OFF ratio    1.16
 2            U7G U8A G9U U10A C13G  aptazyme ON/OFF ratio    1.03
 3  U7A U8A G9U U10C U11C C12U C13A  aptazyme ON/OFF ratio    1.02
 4       U7A U8A G9A U10A C12G C13G  aptazyme ON/OFF ratio    1.15
 5                U7G U8C U11G C12G  aptazyme ON/OFF ratio    1.22
 6                U7G G9U U11G C12G  aptazyme ON/OFF ratio    1.74
 7                    G9C U10C C12A  aptazyme ON/OFF ratio    1.09
 8            U7C U8A G9C U10C C12U  aptazyme ON/OFF ratio    1.15
 9       U7G U8C G9C U10G U11G C12G  aptazyme ON/OFF ratio    1.13
10  U7C U8G G9A U10A U11A C12U C13U  aptazyme ON/OFF ratio    1.16
11       U7G U8C G9C U10C U11C C13A  aptazyme ON/OFF ratio    1.04
12  U7A U8C G9C U10G U11G C12G C13U  aptazyme ON/OFF ratio    1.05
13       U7G U8G G9C U11C C12U C13G  aptazyme ON/OFF ratio    1.37
14       U7A U8A G9U U10A U11A C12G  aptazyme ON/OFF ratio    1.23
15                U7A U8A C12G C13G  aptazyme ON/OFF ratio    1.35
16            U7C U8A G9U U10C C13A  aptazyme ON/OFF ratio    1.05
17           U7A U8C U10A U11A C12G  aptazyme ON/OFF ratio    1.23
18       U7G U8A G9A U10G U11C C12U  aptazyme ON/OFF ratio    1.09
19                         U7C C12A  aptazyme ON/OFF ratio    1.61
20            U7A U8C G9C U10G C12U  aptazyme ON/OFF ratio    1.02
21          G9C U10G U11A C12A C13A  aptazyme ON/OFF ratio    1.23
22  U7A U8A G9A U10C U11C C12U C13G  aptazyme ON/OFF ratio    1.03
